Source: ChEMBL document CHEMBL1130641

- target entity: Neutrophil elastase (Homo sapiens, UniProt P08246)
- Sequence (P08246 whole entry): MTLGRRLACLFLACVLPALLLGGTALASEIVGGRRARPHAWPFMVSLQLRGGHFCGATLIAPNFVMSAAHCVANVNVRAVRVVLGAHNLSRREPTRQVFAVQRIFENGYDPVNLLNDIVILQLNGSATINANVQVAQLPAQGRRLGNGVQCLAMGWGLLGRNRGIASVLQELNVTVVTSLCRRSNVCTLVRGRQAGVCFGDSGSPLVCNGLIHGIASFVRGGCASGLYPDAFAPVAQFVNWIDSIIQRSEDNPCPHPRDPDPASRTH
- protocol: Compound was evaluated for the inhibition of human leukocyte elastase(HLE).
measurement label: IC50

Find the recorded IC50 belonging to `CC(C)=CC(=O)C[C@H]1C(=O)O[C@H]2C[C@]3(C)C4=CC[C@@H]5[C@](C)(CC[C@H]6OC(=O)[C@@]56C)[C@H]4CC[C@@]3(C)[C@@H]21` and report it. > 10 µM

----------
Serine protease 1 (Homo sapiens, UniProt P07477) IC50 data
Sequence (P07477 whole entry): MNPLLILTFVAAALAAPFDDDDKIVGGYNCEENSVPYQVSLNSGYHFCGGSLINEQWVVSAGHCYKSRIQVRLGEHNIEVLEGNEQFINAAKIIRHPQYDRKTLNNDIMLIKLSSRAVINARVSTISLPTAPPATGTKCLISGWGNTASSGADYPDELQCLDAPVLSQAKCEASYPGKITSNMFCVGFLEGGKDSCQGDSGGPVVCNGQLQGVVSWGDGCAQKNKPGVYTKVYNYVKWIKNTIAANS
Include the unit after the number when you answer.

Worked set:
# entry smiles, target entity, IC50
records = [
    ("N=C(N)c1ccc(C[C@H]2C(=O)O[C@H]3CCC[C@@H]32)cc1", "Serine protease 1 (Homo sapiens, UniProt P07477)", "220 nM"),
    ("N=C(N)c1cccc(C[C@H]2C(=O)O[C@H]3CCC[C@@H]32)c1", "Serine protease 1 (Homo sapiens, UniProt P07477)", "3300 nM"),
    ("N=C(N)CCCC[C@H]1C(=O)O[C@H]2CCC[C@@H]21", "Serine protease 1 (Homo sapiens, UniProt P07477)", "40 nM"),
]

// moving on: another record for IC50
Find the recorded IC50 belonging to `CC(C)=CC(=O)C[C@H]1C(=O)O[C@H]2C[C@]3(C)C4=CC[C@@H]5[C@](C)(CC[C@H]6OC(=O)[C@@]56C)[C@H]4CC[C@@]3(C)[C@@H]21` and report it. 70 nM
